# System: hepatocarcinoma HepG2
# Protocol notes: Safety, MTT test in HepG2
# Assay type: cell-based
# Conditions: 100 μM, 48 hours
# MTT, Hepatocarcinoma HepG2 listing for each entry below

Compound	MTT, Hepatocarcinoma HepG2
Cc1ccc(/C=C/C(=O)NCCCCCO)cc1 [H-415/21]	100.32 ± 1.75 % of solvent control
O=C(/C=C/c1ccc(Cl)cc1)NCCO [H-427/21]	99.61 ± 4.37 % of solvent control
O=C(/C=C/c1ccc(Cl)cc1)NCCCCCO [Compound A-111]	101.10 ± 6.01 % of solvent control
O=C(/C=C/c1ccccc1)NCCCCCO [Compound A-133]	104.96 ± 7.60 % of solvent control
O=C(/C=C/c1ccc(Cl)cc1)NCCCO [H-330/21]	100.73 ± 4.51 % of solvent control

* * *

# LDH, Fibroblasts (BJ) listing for each entry below
# Tested on: fibroblasts (BJ)
# Protocol notes: Safety, LDH test in fibroblasts
# Type: cell-based
# Conditions: 250 μM, 48 hours, vs Triton X-100
# Excerpt: In order to test the safety of the compounds, both normal human cells were used: keratinocytes (HaCaT), fibroblasts (BJ), primary melanocytes that occur in the skin, as well as human cancer cells: the hepatocarcinoma line HepG2 and the neuroblastoma line SH-SY5Y, which are considered a model for the assessment of hepatocytotoxicity and neurocytotoxicity. […] The absorbance at 570 nm, which corresponds to the absorption maximum for the product, is directly proportional to cell viability. […]

Smiles text	LDH, Fibroblasts (BJ)
O=C(/C=C/c1ccc(Cl)cc1)NCCCCCO	14.90 percentage of positive control
O=C(/C=C/c1ccc(Cl)cc1)NCCO	17.32 percentage of positive control
O=C(/C=C/c1ccccc1)NCCCCCO	28.31 percentage of positive control
O=C(/C=C/c1ccc(Cl)cc1)NCCCO	28.74 percentage of positive control
Cc1ccc(/C=C/C(=O)NCCCCCO)cc1	16.63 percentage of positive control

* * *

# Tested on: S. typhimurium TA1537
# Protocol notes: Ames microplate test, TA1537
# Format: cell-based, Salmonella typhimurium
# Conditions: 0.5 mM, + S9
# Method: Bacteria were grown overnight in growth medium.
Value kind: Increase in the number of yellow wells compared to the reference level, TA1537

Compound	Tgt	Recorded measurement
O=C(/C=C/c1ccccc1)NCCCCCO	S. typhimurium TA1537	0.18
CCC(O)CNC(=O)/C=C/c1ccc(Cl)cc1 (stereo not shown)	S. typhimurium TA1537	1.00
O=C(/C=C/c1ccccc1)NCCCCCCO	S. typhimurium TA1537	1.33
O=C(/C=C/c1ccc(Cl)cc1)NCCCCCO	S. typhimurium TA1537	0.27

* * *

# Increase in the number of yellow wells compared to the reference level, TA1535 listing for each entry below
# Test system: S. typhimurium TA1535
# Protocol notes: Ames microplate test, TA1535;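 also: bacteria exposed 90 min at 37 °C in exposure medium, then 48 h in indicator medium in 384-well plates, yellow (revertant) wells counted per condition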
# Conditions: 0.5 mM, without S9
Value kind: Increase in the number of yellow wells compared to the reference level, TA1535

Molecule	Tgt	Recorded measurement
O=C(/C=C/c1ccc(Cl)cc1)NCCCCCO [Compound A-111]	S. typhimurium TA1535	0.55
O=C(/C=C/c1ccccc1)NCCCCCCO [H-425/21]	S. typhimurium TA1535	1.04
CC(CO)NC(=O)/C=C/c1ccc(Cl)cc1 (stereo not drawn) [Compound A-102]	S. typhimurium TA1535	0.55
Cc1ccc(/C=C/C(=O)NCCCCCO)cc1 [H-415/21]	S. typhimurium TA1535	0.21
CCC(O)CNC(=O)/C=C/c1ccc(Cl)cc1 (stereo not drawn) [Compound A-67]	S. typhimurium TA1535	0.30
O=C(/C=C/c1ccccc1)NCCCCCO [Compound A-133]	S. typhimurium TA1535	0.92
